molecular target: 14-3-3σ/ERα (Homo sapiens, UniProt P03372+P31947); construct: The 14-3-3 σ isoform (full-length for mass spectrometry and fluorescence anisotropy assays, ΔC for crystallography); made in house; host or cells: E. coli Rosetta 2(DE3)pLysS, pPROEX HTb vector; assay: Fluorescence anisotropy protein titration, FAM-labeled ERα peptide; format: binding; conditions: 10 nM FAM-ERα peptide, versus DMSO reference
Sequence (P31947 whole entry, other chains not shown, canonical isoform): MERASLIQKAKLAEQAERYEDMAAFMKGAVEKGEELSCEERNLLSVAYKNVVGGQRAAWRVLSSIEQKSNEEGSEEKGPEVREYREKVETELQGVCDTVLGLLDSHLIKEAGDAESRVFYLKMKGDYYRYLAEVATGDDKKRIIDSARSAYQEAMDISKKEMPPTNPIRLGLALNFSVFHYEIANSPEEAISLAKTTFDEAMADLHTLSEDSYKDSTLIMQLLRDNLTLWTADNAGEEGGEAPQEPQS
Observation type: X Fold stabilization (100 µM compound) of 14-3-3σ/ERα (fold)

Compound	Recorded value
CC1CC(Nc2ccc(Cl)cc2)(C(=O)NCC2CC3(CCN(C(=O)CCl)CC3)C2)CC(C)O1 (stereo not shown) [compound 180]	7
C=CC(C)(C)OCC1OC(OC2C3=C(C(C)COC(C)=O)CC(O)C3(C)C=C3C(COC)CCC3C(C)C2O)C(O)C(OC(C)=O)C1O (stereo not shown) [FC-A, Fusicoccin-A, reference compound]	166
O=C(CCl)NCCCC1CCN(C(=O)C2(Nc3ccc(Cl)cc3)CCOCC2)CC1 [compound 149]	55
O=C(CCl)N1CCC2(CC1)CCN(C(=O)C1(Nc3ccc(Cl)cc3)CCOCC1)CC2 [compound 170]	12

====

biological target: 14-3-3σ (Homo sapiens, UniProt P31947); construct: The 14-3-3 σ isoform (full-length for mass spectrometry and fluorescence anisotropy assays, ΔC for crystallography); made in house; host or cells: E. coli Rosetta 2(DE3)pLysS, pPROEX HTb vector; test: Mass spectrometry dose response, compound binding to 14-3-3σ in the absence of peptide (apo); details: 100 nM compound, 100 nM 14-3-3σ, 24h
Sequence (P31947 whole entry, canonical isoform): as the sequence (P31947 whole entry, other chains not shown, canonical isoform) above
The following compounds are shown together with reported Percentage (%) bound of compound to 14-3-3σ, APO 24h values.
Observation type: Percentage (%) bound of compound to 14-3-3σ, APO 24h

> print(dat)
                           molecular.string  quantity.unit  recorded.value
1  C=CS(=O)(=O)NCC1CCN(C(=O)C2(Nc3ccc(Cl)cc3)CCOCC2)CC1              %            31.4
2  O=C(CCl)NCC1CCN(C(=O)C2(Nc3ccc(Cl)cc3)CCCC2)CC1              %            13.0
3  C=CS(=O)(=O)NCC1CCN(C(=O)C(C)(C)Oc2ccc(Cl)cc2)CC1              %             1.0
4  O=C(CCl)NCC1CCN(C(=O)C2(Oc3ccc(Cl)cc3)CCC(F)(F)CC2)CC1              %             1.6

====

molecular target: 14-3-3σ/C-RAF (Homo sapiens, UniProt P31947); construct: The 14-3-3 σ isoform (full-length for mass spectrometry and fluorescence anisotropy assays, ΔC for crystallography); made in house; host or cells: E. coli Rosetta 2(DE3)pLysS, pPROEX HTb vector; assay: Mass spectrometry dose response, compound binding to 14-3-3σ in the presence of C-RAF phosphopeptide; details: 100 nM compound, 100 nM 14-3-3σ, C-RAF peptide 18 µM, 1h
Sequence (P31947 whole entry, canonical isoform): as the sequence (P31947 whole entry, other chains not shown, canonical isoform) above
Observation type: Percentage (%) bound of compound to 14-3-3σ, CRAF 1h

> print(dat)
                                    compound  recorded.value
 1  O=C(CCl)NC1CC2(CCN(C(=O)C3(Nc4ccc(Cl)cc4)CCOCC3)CC2)C1            1.8%
 2  O=C(CCl)NCC1CCN(C(=O)C2(Oc3ccc(Cl)cc3)CCCCC2)CC1            1.5%
 3  O=C(CCl)N1CC2(CCN(C(=O)C3(Nc4ccc(Cl)cc4)CCOCC3)CC2)C1            0.4%
 4  CC1CC(Nc2ccc(Cl)cc2)(C(=O)N2CCC(CNC(=O)CCl)CC2)CC(C)O1 (stereo not shown)              0%
 5  O=C(CCl)NCC1CCN(C(=O)C2(Oc3ccc(Cl)cc3)CCCC2)CC1           10.7%
 6  O=C(CCl)NCC1CCN(C(=O)C2(Nc3ccc(Cl)cc3)CC2)CC1            1.0%
 7  CC(C)(Nc1ccc(Cl)cc1)C(=O)N1CCC(CNC(=O)CCl)CC1            0.8%
 8  O=C(CCl)NCC1CCN(C(=O)C2(Oc3ccc(Cl)cc3)CCOCC2)CC1            0.0%
 9  O=C(CCl)NCC1CCN(C(=O)C2(Nc3ccc(Cl)cc3)CCOCC2)CC1            1.1%
10  C=CS(=O)(=O)NCC1CCN(C(=O)C(C)(C)Oc2ccc(Cl)cc2)CC1            4.7%
11  O=C(CCl)NCC1CCN(C(=O)C2(Nc3ccc(Cl)cc3)CCCCC2)CC1            1.0%
12  O=C(CCl)NCC1CCN(C(=O)C2(Oc3ccccc3)CCCC2)CC1            6.2%
13  O=C(CCl)NCC1CC2(CCN(C(=O)C3(Nc4ccc(Cl)cc4)CCOCC3)CC2)C1            0.6%
14  O=C(CCl)N1CCC2(CC1)CCN(C(=O)C1(Nc3ccc(Cl)cc3)CCOCC1)CC2            3.6%
15  O=C(CCl)NCC1CCN(C(=O)C2(Nc3ccccc3)CCCCC2)CC1              0%
16  O=C(CCl)NCCCC1CCN(C(=O)C2(Nc3ccc(Cl)cc3)CCOCC2)CC1              0%
17  O=C(CCl)NCCC1CCN(C(=O)C2(Nc3ccc(Cl)cc3)CCOCC2)CC1              0%
18  O=C(CCl)NCC1CCN(C(=O)C2(Nc3ccc(Cl)cc3)CCC(F)(F)CC2)CC1            4.9%
19  O=C(CCl)NCC1CCN(C(=O)C2(Oc3ccc(Cl)cc3)CC2)CC1            0.1%
20  CC(C)(Oc1ccc(Cl)cc1)C(=O)N1CCC(CNC(=O)CCl)CC1            4.1%
21  NC1CCC(Nc2ccc(Cl)cc2)(C(=O)N2CCC(CNC(=O)CCl)CC2)CC1 (stereo not shown)            1.7%
22  O=C(CCl)N1CCC2(CC1)CC(NC(=O)C1(Nc3ccc(Cl)cc3)CCOCC1)C2            6.0%
23  O=C(CCl)N1CCC2(CC1)CN(C(=O)C1(Nc3ccc(Cl)cc3)CCOCC1)C2              0%
24  O=C(CCl)N1CCC2(CC1)CC(CNC(=O)C1(Nc3ccc(Cl)cc3)CCOCC1)C2            2.4%
25  Cl.NC1CCC(Oc2ccccc2)(C(=O)N2CCC(CNC(=O)CCl)CC2)CC1 (stereo not shown)              0%
26  O=C(CCl)NCC1CCN(C(=O)C2(Nc3ccccc3)CCCC2)CC1              0%
27  O=C(CCl)NCC1CCN(C(=O)C2(Nc3ccccc3)CCC2)CC1              0%
28  C=CS(=O)(=O)NCC1CCN(C(=O)C2(Nc3ccc(Cl)cc3)CCOCC2)CC1              0%
29  Cl.O=C(CCl)NCC1CCN(C(=O)C2(Oc3ccc(Cl)cc3)CCNCC2)CC1            0.4%
30  CC1CC(Nc2ccc(Cl)cc2)(C(=O)NCC2CC3(CCN(C(=O)CCl)CC3)C2)CC(C)O1 (stereo not shown)              0%
31  CC(C)(Oc1ccc(Cl)cc1)C(=O)N1CCC(CCC(=O)CCl)CC1           98.8%
32  O=C(CCl)CCC1CCN(C(=O)C2(Nc3ccc(Cl)cc3)CCOCC2)CC1           54.7%
33  O=C(CCl)NCC1CCN(C(=O)C2(Nc3ccc(Cl)cc3)CCNCC2)CC1            2.0%
34  CC(C)(Oc1ccc(Cl)cc1)C(=O)N1CCC(CCNC(=O)CCl)CC1            3.1%

====

target: 14-3-3σ/ERα (Homo sapiens, UniProt P03372+P31947); construct: The 14-3-3 σ isoform (full-length for mass spectrometry and fluorescence anisotropy assays, ΔC for crystallography); made in house; host or cells: E. coli Rosetta 2(DE3)pLysS, pPROEX HTb vector; assay: Mass spectrometry dose response, compound binding to 14-3-3σ in the presence of ERα phosphopeptide; conditions: 100 nM compound, 100 nM 14-3-3σ, ERα-peptide 2 µM, 16h
Checkbox rule: Percentage (%) bound of compound to 14-3-3σ, ERα 16h lower than 10% = 1.0; Percentage (%) bound of compound to 14-3-3σ, ERα 16h not lower than 10% = 0.0.

> print(dat)
                                    compound  cat
 1  O=C(CCl)NCC1CCN(C(=O)C2(Nc3ccccc3)CCC2)CC1  1.0
 2  Cl.NC1CCC(Nc2ccccc2)(C(=O)N2CCC(CNC(=O)CCl)CC2)CC1 (centres unmarked)  0.0
 3  O=C(CCl)NCC1CCN(C(=O)C2(Oc3ccc(Cl)cc3)CCCC2)CC1  0.0
 4  O=C(CCl)NCCCC1CCN(C(=O)C2(Nc3ccc(Cl)cc3)CCOCC2)CC1  0.0
 5  Cl.NC1CCC(Oc2ccccc2)(C(=O)N2CCC(CNC(=O)CCl)CC2)CC1 (centres unmarked)  1.0
 6  NC1CCC(Oc2ccc(Cl)cc2)(C(=O)N2CCC(CNC(=O)CCl)CC2)CC1 (centres unmarked)  0.0
 7  CC(C)(Oc1ccc(Cl)cc1)C(=O)N1CCC(CNC(=O)CCl)CC1  0.0
 8  C=CS(=O)(=O)NCC1CCN(C(=O)C2(Nc3ccc(Cl)cc3)CCOCC2)CC1  1.0
 9  O=C(CCl)CCC1CCN(C(=O)C2(Nc3ccc(Cl)cc3)CCOCC2)CC1  0.0
10  O=C(CCl)NCC1CCN(C(=O)C2(Oc3ccccc3)CCCC2)CC1  0.0
11  O=C(CCl)NCC1CCN(C(=O)C2(Nc3ccc(Cl)cc3)CCC(F)(F)CC2)CC1  0.0
